Examples of compounds with documented growth inhibition follow.
assay: NCI Yeast Anticancer Drug Screen. Data for the cln2 rad14 strain (AID 165);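 note: 0% = growth equal to vehicle treated cultures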; conditions: S. cerevisiae cln2 rad14 strain, at 50.0 µM, stronger effect = higher value
Compounds without any hit were thinned out: in the full panel of roughly 79,000, 15% have a hit.
Give the number; % is assumed, so skip it.

// known answers, use as guide
INSERT INTO results (compound, units_label, numeric_value) VALUES
  ('CCCCCCCCCCCCCCCC(=O)ON1C(=S)NC(C)(c2ccccc2)C1=S (configuration not stated)', '%', -4.05),
  ('CCOC(=O)C1=C(C)Oc2cc3c(cc2C1c1ccc(OC)cc1)OCO3 (configuration not stated)', '%', -39.8),
  ('c1ccc(-c2[nH]nc3nc4c(nc23)CCCC4)cc1', '%', -32.9),
  ('COc1ccc(Nc2ccnc(N)n2)cc1', '%', -0.35),
  ('CN(C(=O)C12C3C4C5C3C1(C(=O)O)C5C42)C(C)(C)C (configuration not stated)', '%', 18.8),
  ('CCOC(=O)C(C)(C)Oc1ccc2c(=O)cc(-c3ccc(Cl)cc3)oc2c1', '%', -14.5);

Input CCC(=O)C(C)C1=Nc2nnc(CCCCCCCc3nnc4n3C(=O)C(C(C)C(=O)CC)=N4)n2C1=O (configuration not stated) . Output growth inhibition: -7.4

Input COc1cc(C)c(N)cc1N . Output growth inhibition: -14

Input Cc1ccccc1C(=O)NNC(=O)c1cccc2ccccc12 . Output growth inhibition: 3.65

Input Cc1nc(=S)[nH][nH]1 . Output growth inhibition: 3.5

Input CCOC(=O)c1cc2cc([N+](=O)[O-])ccc2[nH]1 . Output growth inhibition: 5.65

Input COc1cc2c(cc1OC)C1CC(O)(c3nccc4cc(OC)c(OC)cc34)CCN1CC2 (configuration not stated) . Output growth inhibition: 10.7

----------
experiment: NCI Yeast Anticancer Drug Screen. Data for the mec2-1 strain (AID 157); details: S. cerevisiae mec2-1 strain, at 50.0 µM, stronger effect = higher value
This is part of a sample that, as a whole, favours compounds with a hit. Of some 79,000 tested, about 15% had one in any assay.
Readout type: growth inhibition (%)
Give the number; % is assumed, so skip it.

INSERT INTO assay_data (compound, readout_type, numeric_value) VALUES
  ('ClC(Cl)(Cl)SSC(=Nc1ccccc1)SSC(Cl)(Cl)Cl', 'growth inhibition', 21.4);

Input COc1ccc(C(=O)c2ccccc2)c(OC(=O)Nc2ccc(Cl)cc2)c1 . Output growth inhibition: -3.4

Input O=C(C(c1ccccc1)C(C(=O)N(Cc1ccccc1)Cc1ccccc1)c1ccccc1)N(Cc1ccccc1)Cc1ccccc1 (stereo unspecified) . Output growth inhibition: 7

Input CC(C)=CCC[C@@H](C)C1[C@@H](OC2OC(CO)C(O)C(O)C2O)CC2(C)[C@@H]3CC(=O)C4C(C)(C)[C@@H](OC5OC(CO)C(O)C(O)C5O)CC[C@@]45C[C@@]35CC[C@]12C (stereo partly specified) . Output growth inhibition: -40

Input O=C(O)c1ccc(Nc2nc3ccccc3nc2-c2cccs2)cc1 . Output growth inhibition: 18.6

Input COc1cccc(Br)c1OC . Output growth inhibition: 1.2

Input COc1ccc(NC(=O)CC(=O)N2N=C(N(CCC#N)c3ccccc3Cl)CC2c2ccccc2)cc1 (stereo unspecified) . Output growth inhibition: -23.6

Input CC(CO)C1C[C@H](O)[C@@]2(C)CC(=O)C=C(CO)[C@@H]2C1 (stereo partly specified) . Output growth inhibition: 22.6

Input CCCCC1=CC1(C#N)[N+](=O)[O-] (stereo unspecified) . Output growth inhibition: 11.5

Input OC(c1ccccc1)c1ccc2c(c1)CCC2 (stereo unspecified) . Output growth inhibition: -8.65

Input Cc1ccsc1C(=O)C(CC(=O)c1cccs1)c1ccsc1 (stereo unspecified) . Output growth inhibition: -8.45

Cited source: PubChem BioAssay (NCI)
